Biological target: T1, hVEGF-A (8-109) (human, UniProt P15692 214-315)
T1 sequence (looked up): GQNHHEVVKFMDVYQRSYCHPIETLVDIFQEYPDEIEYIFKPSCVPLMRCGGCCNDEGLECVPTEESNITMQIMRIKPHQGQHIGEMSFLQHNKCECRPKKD
Test: spot phage ELISA
As shown below, each of these binders has a reported S/N vs BSA value.
Number only, no unit.

Consider the following illustrative entries.
* GCDDPSFDWSVYCKQDSDCLAGCVCRMYDSCG (designed binder) [VEGF_CKP7.2] | 21.5
* GCKNPLFNWALYCKQDSDCLAGCVCQLFDSCG (designed binder) [VEGF_CKP7.8] | 7.5
* GCQDPTFNWAEYCKQDSDCLAGCVCQMYQSCG (designed binder) [VEGF_CKP7.35] | 10.6
* GCRDLTINWALFCKQDSDCLAGCVCQMFNSCG (designed binder) [VEGF_CKP7.73] | 19.2
* GCLDPSFNWSLYCKQDSDCLAGCVCQMYDSCG (designed binder) [VEGF_CKP7.57] | 17.4

S/N vs BSA recorded for this binder, GCKDTTFNWGLFCKQDSDCLAGCVCQLYQSCG (designed binder) [VEGF_CKP7.78] , is 11.8

Entry GCQDPTFNWAEYCKQDSDCLAGCVCQLYQSCG (designed binder) [VEGF_CKP7.19] , S/N vs BSA reported as 11.1

S/N vs BSA reading for GCQDPTLNWATYCKQDSDCLAGCVCQMYQSCG (designed binder) [VEGF_CKP7.43] : 6.3

For this binder ( GCQDPKLNWAVYCKQDSDCLAGCVCQLFNSCG (designed binder) [VEGF_CKP7.88] ), measured S/N vs BSA is 7.7

Item: GCQDPTVNWAVYCKQDSDCLAGCVCQFYQSCG (designed binder) [VEGF_CKP7.17] | S/N vs BSA: 13.4

The value of S/N vs BSA measured for the binder GCLDPSFDWALYCKQDSDCLAGCVCQLYNSCG (designed binder) [LRP6_CKP7.89] turned out to be 8.1

Briefly, S/N vs BSA measured for GCQDPSLNWADYCKQDSDCLAGCVCQMHQSCG (designed binder) [VEGF_CKP7.50] : 14.3

Lab note: GCLDPTVNWALFCKQDSDCLAGCVCQHYKTCG (designed binder) [VEGF_CKP7.81] gave S/N vs BSA of 18.6
